- target.or.test.system: Porcine ventricle myofibrils (ventricular myosin ATPase) (Sus scrofa, UniProt P79293)
- Construct: Myofibrils from porcine cardiac muscle was isolated from the left ventricle of Yucatan minipigs; tissue Exemplar Genetics; host or cells: left ventricle of Yucatan minipigs, myofibrils prepared in house
- Sequence (P79293 whole entry): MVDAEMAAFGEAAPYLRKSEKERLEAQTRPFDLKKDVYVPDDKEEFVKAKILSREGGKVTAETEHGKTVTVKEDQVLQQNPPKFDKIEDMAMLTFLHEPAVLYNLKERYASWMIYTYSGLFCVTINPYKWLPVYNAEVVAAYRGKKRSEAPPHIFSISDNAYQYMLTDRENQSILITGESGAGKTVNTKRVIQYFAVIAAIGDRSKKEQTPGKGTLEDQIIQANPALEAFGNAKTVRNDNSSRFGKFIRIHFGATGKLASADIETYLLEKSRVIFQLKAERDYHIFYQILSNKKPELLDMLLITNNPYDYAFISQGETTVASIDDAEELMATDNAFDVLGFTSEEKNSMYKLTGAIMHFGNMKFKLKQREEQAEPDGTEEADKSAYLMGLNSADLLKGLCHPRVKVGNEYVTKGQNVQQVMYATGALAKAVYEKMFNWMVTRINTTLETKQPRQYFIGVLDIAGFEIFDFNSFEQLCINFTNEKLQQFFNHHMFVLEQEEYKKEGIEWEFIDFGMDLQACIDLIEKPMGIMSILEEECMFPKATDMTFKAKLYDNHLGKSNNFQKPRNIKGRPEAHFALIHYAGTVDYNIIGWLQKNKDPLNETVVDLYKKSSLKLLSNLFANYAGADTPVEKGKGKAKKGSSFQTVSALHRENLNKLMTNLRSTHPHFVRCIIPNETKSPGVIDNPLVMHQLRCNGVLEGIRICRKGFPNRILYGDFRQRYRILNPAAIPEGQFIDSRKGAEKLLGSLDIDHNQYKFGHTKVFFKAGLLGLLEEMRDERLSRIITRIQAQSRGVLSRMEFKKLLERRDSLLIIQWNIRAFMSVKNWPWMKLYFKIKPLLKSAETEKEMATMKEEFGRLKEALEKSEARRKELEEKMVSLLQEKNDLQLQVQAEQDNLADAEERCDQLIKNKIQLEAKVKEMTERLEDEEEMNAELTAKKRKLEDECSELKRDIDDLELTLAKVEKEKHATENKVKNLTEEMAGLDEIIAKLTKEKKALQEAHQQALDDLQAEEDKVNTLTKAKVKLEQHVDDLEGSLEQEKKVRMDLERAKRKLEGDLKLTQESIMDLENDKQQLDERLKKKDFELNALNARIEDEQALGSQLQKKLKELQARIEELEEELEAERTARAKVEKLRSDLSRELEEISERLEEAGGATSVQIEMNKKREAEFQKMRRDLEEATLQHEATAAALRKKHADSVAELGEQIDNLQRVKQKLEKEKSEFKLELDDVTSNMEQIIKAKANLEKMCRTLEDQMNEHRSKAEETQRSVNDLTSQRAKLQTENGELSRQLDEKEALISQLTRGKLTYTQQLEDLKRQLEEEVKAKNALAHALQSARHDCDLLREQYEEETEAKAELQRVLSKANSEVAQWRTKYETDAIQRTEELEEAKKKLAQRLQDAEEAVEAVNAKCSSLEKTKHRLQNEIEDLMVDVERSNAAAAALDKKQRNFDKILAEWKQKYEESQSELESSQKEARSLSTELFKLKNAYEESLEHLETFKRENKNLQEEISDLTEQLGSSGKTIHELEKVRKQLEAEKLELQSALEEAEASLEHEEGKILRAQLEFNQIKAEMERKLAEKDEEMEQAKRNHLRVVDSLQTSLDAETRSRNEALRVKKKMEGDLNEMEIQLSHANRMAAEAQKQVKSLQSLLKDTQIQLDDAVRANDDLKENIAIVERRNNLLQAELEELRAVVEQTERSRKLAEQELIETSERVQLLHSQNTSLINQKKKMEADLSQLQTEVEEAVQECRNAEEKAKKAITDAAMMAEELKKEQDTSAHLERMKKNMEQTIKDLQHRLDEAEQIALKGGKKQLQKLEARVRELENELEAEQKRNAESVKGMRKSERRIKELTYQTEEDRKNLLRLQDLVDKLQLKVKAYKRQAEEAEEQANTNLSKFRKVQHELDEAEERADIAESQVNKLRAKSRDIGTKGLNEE
- procedure.details: Myofibril ATPase assay, porcine ventricle myofibrils
- Type: biochemical, porcine (Yucatan minipigs)
- condition.set: porcine ventricle myofibrils; Y75 value
parameter.measured: Ventricular EC25 (µM)

Past entries and their recorded results:
>>> df
                                   compound  unit_text  endpoint_value
0  Cc1c(CC(=O)N[C@@H](C)c2ncc(C#N)cc2F)c(=O)[nH]c2ccnc(C#N)c12 (single isomer, unassigned) [compound 285]         µM            0.16
1  Cc1ccc([C@H](C)NC(=O)Cc2c(C)c3c(C)nccc3[nH]c2=O)cc1 (single isomer, unassigned) [compound 306]         µM          100.00
2  Cc1c(CC(=O)N[C@H](C)c2ncc(F)cc2F)c(=O)[nH]c2ccnc(C#N)c12 (single isomer, unassigned) [compound 304]         µM          100.00
3  C[C@H](NC(=O)[C@@H](C)c1cc2nc(F)ccc2[nH]c1=O)c1ccc(F)cc1F (single isomer, unassigned) [compound 364]         µM            4.71
4  Cc1nccc2[nH]c(=O)c(CC(=O)N[C@H](C)c3cccc(O)n3)c(C)c12 (single isomer, unassigned) [compound 297]         µM          100.00
5  Cc1nccc2[nH]c(=O)c(CC(=O)N[C@@H](C)c3cccnc3)c(C)c12 (single isomer, unassigned) [compound 323]         µM          100.00

a: Cc1nccc2[nH]c(=O)c(CC(=O)N[C@H](CO)c3ccccn3)c(C)c12 (single isomer, unassigned) [compound 316]
b: COc1nccc2[nH]c(=O)c(CC(=O)N[C@@H](C)c3ccc(F)cc3F)c(C)c12 [compound 385]
c: Cc1nccc2[nH]c(=O)c(CC(=O)N[C@@H](C)c3cnc(C#N)cn3)c(C)c12 [compound 487]
d: Cc1nccc2[nH]c(=O)c(CC(=O)N[C@@H](C)c3ccc(F)cc3F)c(F)c12 [compound 150]
Data request: Reorder the items by Ventricular EC25, least to greatest. Answer by naming the labels in the order asked.
Data returned: b, d, c, a

---

- System: Porcine atria myofibrils (atrial myosin ATPase)
- procedure.details: Myofibril ATPase assay, porcine atria myofibrils
- Type: biochemical
- condition.set: Y75 value (no ‡ mark); porcine atria myofibrils
parameter.measured: Atrial EC25 (nM)

Reference set (3 entries):
>>> print(df.to_string())
                                   compound                     target_or_test_system  endpoint_value
0  Cc1c(C2(C(=O)N[C@@H](C)c3ncc(C#N)cn3)CC2)c(=O)[nH]c2ccc(F)cc12 (single isomer, unassigned)  Porcine atria myofibrils (atrial myosin ATPase)            1520
1  C[C@H](NC(=O)C1(c2cc3c(F)c(F)ccc3[nH]c2=O)CC1)c1ccc(F)cc1F  Porcine atria myofibrils (atrial myosin ATPase)             230
2  C[C@@H](NC(=O)Cc1cc2c(F)c(F)ccc2[nH]c1=O)c1ncc(C#N)cn1 (single isomer, unassigned)  Porcine atria myofibrils (atrial myosin ATPase)            1070

I: Cc1cc([C@H](C)NC(=O)Cc2c(C)c3c(C)c(F)ccc3[nH]c2=O)ncc1F (single isomer, unassigned)
II: Cc1c(CC(=O)N[C@H](C)c2ncc(C#N)cc2F)c(=O)[nH]c2cc(F)ccc12
III: Cc1c(CC(=O)N[C@@H](C)c2ccc(C#N)nn2)c(=O)[nH]c2ccc(F)c(C3CC3)c12 (single isomer, unassigned)
IV: Cc1c(C(F)(F)C(=O)N[C@H](C)c2cnc(C#N)cn2)c(=O)[nH]c2ccc(F)cc12 (single isomer, unassigned) [compound 4827]
V: Cc1c(CC(=O)N[C@@H](CO)c2ccc(C#N)cc2F)c(=O)[nH]c2ccc(F)c(C3CC3)c12
Data request: Rank by Atrial EC25 (largest to smallest). Rank the items, then write their labels in that order.
Data returned: III, II, I, IV, V
